target entity: SULT1A1 (Homo sapiens)
Sequence (P50225 whole entry): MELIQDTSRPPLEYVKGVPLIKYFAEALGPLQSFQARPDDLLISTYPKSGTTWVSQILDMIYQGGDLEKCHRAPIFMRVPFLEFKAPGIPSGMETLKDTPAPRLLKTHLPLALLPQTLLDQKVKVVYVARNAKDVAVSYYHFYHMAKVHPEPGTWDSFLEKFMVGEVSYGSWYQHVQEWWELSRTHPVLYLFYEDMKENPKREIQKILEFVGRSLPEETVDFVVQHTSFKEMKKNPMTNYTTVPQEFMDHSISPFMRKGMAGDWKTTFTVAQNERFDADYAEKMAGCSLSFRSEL
method description: Presteady state
Assay type: binding
pKd: −log10 of the molar value.
readout name: pKd

>>> assay_value("C[C@]12CC[C@@H]3c4ccc(O)cc4CC[C@H]3[C@@H]1CC[C@@H]2O [E2, estradiol]")
5.89

* * *

target entity: SULT1A1 (Homo sapiens)
method description: Presteady state
Assay type: binding
experimental parameters: Kd (koff/kon), enzyme species E; calculated from rate constants
readout name: Kd (nM)

>>> assay_value("C[C@]12CC[C@@H]3c4ccc(O)cc4C[C@@H](CCCCCCCCC[S+]([O-])CCCC(F)(F)C(F)(F)F)[C@H]3[C@@H]1CC[C@@H]2O (stereo partly shown)")
270

* * *

target entity: UniProt:P50225
Assay type: binding
pKd: −log10 of the molar value.
readout name: pKd

>>> assay_value("C[C@]12CC[C@@H]3c4ccc(O)cc4CC[C@H]3[C@@H]1CC[C@@H]2O [E2, estradiol]")
5.77
